Heads up, these compounds all have MIC values measured for S. aureus ATCC 6538.
The response must be a number in µg/mL with no trailing unit.

COc1ccc(NC(=O)Nc2ccc(Cl)c(Cl)c2)cc1 [1de] | 64
O=C(Nc1ccccc1)Nc1ccc(Cl)c(Cl)c1 [1ef, 1-(3,4-Dichlorophenyl)-3-phenylurea] | 16
Cc1ccccc1NC(=O)Nc1ccc(Cl)c(Cl)c1 [1eg] | 64
Cc1cccc(C)c1NC(=O)Nc1ccccc1 [1bf, 1-(2,6-Dimethylphenyl)-3-phenylurea] | 16
COc1ccc(NC(=O)Nc2ccc(C)cc2)cc1 [1ad, 1-(4-Methoxyphenyl)-3-(p-tolyl)urea] | 32

Log: S. aureus ATCC 6538, compound Cc1ccccc1NC(=O)Nc1ccc(F)c(F)c1 [1gj] , MIC = 64

Log: S. aureus ATCC 6538, compound Cc1ccc(NC(=O)Nc2ccccc2C)cc1 [1ag] , MIC = 128

Log: S. aureus ATCC 6538, compound Cc1cccc(C)c1NC(=O)Nc1ccc(Cl)c(Cl)c1 [1be] , MIC = 32

Log: S. aureus ATCC 6538, compound Cc1ccccc1NC(=O)Nc1ccccc1F [1gl, 1-(2-Metylphenyl)-3-(2-fluorophenyl)urea] , MIC = 64

Log: S. aureus ATCC 6538, compound Cc1ccccc1NC(=O)Nc1ccccc1Cl [1gh] , MIC = 32

Log: S. aureus ATCC 6538, compound COc1ccc(NC(=O)Nc2ccccc2)cc1 [1df, 1-(4-Methoxyphenyl)-3-phenylurea] , MIC = 64
